Readings of growth for the listed compounds
Tested on: OVCAR-8 ovarian
Test: NCI-60 one-dose screen, 48 h (100 = growth as untreated, 0 = no growth, -100 = all killed)
Settings: 10 µM unless noted
The panel holds about 83,000 compounds, 20% with a hit somewhere; the sample as a whole holds those more often.
PROPERTY NAME: growth (%)

CCOC(=O)c1cc(/C(=N\O)c2cc(OC)c(OC)c(OC)c2)n2c(C)cccc12: 54.3
O=C(CNC1CCCCC1)Nc1ccc(-c2nc3ccccc3s2)cc1: 99.3
O=S(=O)(NCCCNc1nccc(-c2c(-c3ccccc3)nc3sccn23)n1)c1ccc(F)cc1: 26.2
COc1ccc(/C=C/C(=O)c2cc(OC)c(OC)c(OC)c2)cc1OCc1cn(Cc2ccc(F)cc2)nn1: 15
O=C(CCCn1c2c(sc3ccccc32)c(=O)n2nnc(-c3ccccc3)c12)NCCc1cnc[nH]1: -50.6

###

System: M14 melanoma
Assay: NCI-60 one-dose screen, 48 h
Details: 10 µM unless noted
About 83,000 compounds went through this panel and 20% of them were active in at least one assay; those are over-represented in the sample as a whole. The source made the active and inactive calls. How the source made its calls: active means growth percent below 10; inactive means the rest.
Outcome codes: label 1 for active, label 0 for inactive

O=C1c2ccccc2C(=O)c2c1oc1oc3c(c(=O)c21)c(=O)n(-c1ccccc1)c1ccccc31: label 0
CCNC(=O)CCCCC(=O)c1c(C)[nH]c(/C=C2\N=C(c3ccc[nH]3)C=C2OC)c1C: label 1
CCN(CC)CCCC(C)N=c1cc(Nc2cc(=NC(C)CCCN(CC)CC)c3cc(OC)ccc3o2)oc2ccc(OC)cc12 (centres undefined): label 1
CCCCNC(=O)NS(=O)(=O)c1ccc(N2N=C(c3ccc(C)cc3C)CC2c2ccc(OC)cc2)cc1 (centres undefined): label 0
Clc1cccc(Cl)c1Cn1c(-c2cncs2)nc2ccccc21: label 0
COc1cc2c(cc1OCCCCn1c(-c3cc(=O)c4ccccc4o3)nc3ccccc31)N=C[C@@H]1CCCN1C2=O: label 0
COc1ccc(S(=O)(=O)Nc2cc(/C=C\c3cc(OC)c(OC)c(OC)c3)cc(OC)c2OC)cc1OC: label 1
CCc1c(C(=O)Nc2ccc3ccccc3c2)[nH]c(C)c1C(C)=O: label 0
C=C1C(=O)O[C@H]2[C@H]1CC/C(COC(=O)NCc1cc(OC)c(OC)c(OC)c1)=C\CC[C@@]1(C)O[C@@H]21: label 0

###

Readings of growth for the listed molecules
Test system: M14 melanoma
Test: NCI-60 one-dose screen, 48 h (100 = growth as untreated, 0 = no growth, -100 = all killed)
Settings: 10 µM unless noted
About 83,000 compounds went through this panel and 20% of them were active in at least one assay; those are over-represented in the sample as a whole.
PROPERTY NAME: growth (%)

CCCCCCC[C@@H](O)CC(=O)N[C@H](CCCCN)C(=O)N[C@H](Cc1c[nH]c2ccccc12)C(=O)NC(CCCCN)C(=O)N[C@H](CC(C)C)C(=O)N[C@H](Cc1ccccc1)C(=O)N[C@H](CCCCN)C(=O)N[C@H](CCCCN)C(=O)N[C@H](CC(C)C)C(=O)N1CCCC1C(=O)N[C@H](CCCCN)C(=O)N[C@H](Cc1ccccc1)C(=O)N[C@H](CC(C)C)C(=O)N[C@H](Cc1c[nH]cn1)C(=O)N[C@H](CC(C)C)C(=O)N[C@H](C)C(=O)N[C@H](CCCCN)C(=O)N[C@H](CCCCN)C(=O)N[C@H](Cc1ccccc1)C(=O)O (stereo not given in full): -43.4
CC(=O)N1Cc2ccccc2C(C)Cc2cc(Cl)ccc21 (stereo not given): 103
CCN(CC)c1cc(/C=C/c2ccc(OC)c(OC)c2)nc2cc(F)c(F)cc12: 74.6
O=C(O)c1ccc(-n2cc(CNc3ccc(C(F)(F)F)cc3)c(-c3ccccc3)n2)cc1: 89
CCCCOc1nc2c(C)cccc2cc1C1CNC(=O)c2ccccc2N1 (stereo not given): 54.7
O=C(O)c1cccc([N+](=O)[O-])c1/C=C/c1ccccc1: 101
CCOC(=O)[C@H](CSSc1ncnc2cc[nH]c12)NC(=O)[C@@H](C)c1ccc2cc(OC)ccc2c1: 6.45
COc1cc2nc(N3CCC[C@@H](NC4=CC(=O)c5ccccc5C4=O)C3)nc(N)c2cc1OC: 96.3
CCN(Cc1ccc(CN(CC)C(=O)C(Br)Br)cc1)C(=O)C(Br)Br: 24.9
CCCS(=O)(=O)c1nc(NC2CC2)cc(-c2ccc3c(ccn3C3CC(C)(C)NC(C)(C)C3)c2)n1: -78.2
FC(F)(F)c1cccc(-n2nnc3cnc(Nc4ccc(N5CCCCC5)cc4)nc32)c1: 33.8
CCC1=C[C@@H]2CN(C1)Cc1c([nH]c3ccccc13)[C@@](C(=O)OC)(c1cc3c(cc1OC)N(C=O)[C@H]1[C@@](O)(C(=O)OC)[C@H](OC(C)=O)[C@]4(CC)[C@@H]5C[C@@H]5CN5CC[C@]31[C@@H]54)C2: 3.92
COc1ccc(C2=NN(c3ccc(S(N)(=O)=O)cc3)C(c3cn(-c4ccccc4)nc3-c3ccc(Cl)cc3)C2)cc1 (stereo not given): 83.9
CCN1C(=O)/C(=c2\sc3n(c2=O)C2C(NN=3)N(CC)C(=S)N2CC)c2ccccc21 (stereo not given): 96.2
CCCCCc1c(C)[nH]c(/C=c2\[nH]/c(=C3/C=c4ccccc4=N3)cc2OC)c1C: -81.6
CC1=CNNc2c3ncnc-3ncn21: 108
O=C(CCC(=O)OC1CCCC1)OC1CCCC1: 112
Cc1sc2nc(CSc3nnc(-c4ccco4)o3)[nH]c(=O)c2c1C: 122
C/C(=N\NC(=O)CC#N)c1cc2cc(Cl)ccc2o1: 104
O=C(c1ccccc1)C(Cl)C(Cl)c1ccccc1 (stereo not given): 46.8
CCOP(=O)(CCN1CCN(CCCCCOc2cc3c(cc2OC)C(=O)N2CCC[C@H]2C=N3)CC1)OCC: 91.8
Cn1cc(C=O)c2ccccc21: 103
CC(C)C[C@H](NC(=O)[C@H](Cc1ccccc1)n1ccc(N2CCCCC2)cc1=O)B(O)O: 12.5
O=C(Nc1ccc(F)c(Cl)c1)c1n[nH]c(=O)c2ccccc12: 115
CCN1C(=O)N(CC)C2Nn3c(s/c(=C4\C(=O)N(C5CCCC5)c5ccccc54)c3=O)=NC21 (stereo not given): 91.9
CC/C=C\C/C=C\C[C@H]1C/C=C2/C(=O)C=C[C@H]2C/C=C\CCC(=O)O1: -3.62
CCC(c1ccc(OC)cc1)C(CC)c1ccc(OCC[N+](C)(C)C)cc1 (stereo not given): 64
Cc1ccc(-c2csc3nc(C)c(CCCl)c(=O)n23)cc1: 103
Cc1cc(N/C=c2\sc3ncnn3c2=O)no1: 92.8
O=C1C2=C(C(=O)c3c(O)ccc(O)c31)N(c1cccnc1)Cc1ccccc1O2: -78
CC(C)N(Cc1ccc(CN(C(=O)CCl)C(C)C)cc1)C(=O)CCl: 1.15
O=C(C[N+](=O)[O-])c1ccc(Cl)cc1: 101
COc1ccc(C(=O)c2cc(OC)c(OC)c(OC)c2)cc1/C=C/C(=O)c1ccc2c(c1)OCO2: 25.3
COC(=O)[C@H]1[C@H](OC)[C@@H](OC(=O)/C=C/c2ccncc2)CC2CN3CCc4c([nH]c5cc(OC)ccc45)[C@@H]3C[C@@H]21 (stereo not given in full): 78.4
COc1ccc(C2CC(c3cccs3)=NN2c2ccc(S(=O)(=O)NC(=O)Nc3ccc(C)cc3)cc2)cc1 (stereo not given): 58.4

These measurements were taken from PubChem BioAssay (NCI).
